So I've got a bunch of sequences here, and I need their Tm values.
- method summary: melting temperature; fluorescence melt of hairpins on a sequencing array, two-state fit, raised by 9.35 °C to match UV melts
- test parameters: sodium 0.088 M
Numbers only, in °C.

Give Tm for all sequences that follow.
1. GCGTCAACACGC ((((....))))
2. GAGTACCGAAAGGTCTC (((.(((....))))))
3. GCCAATGGAAACACTGGC ((((.((....)).))))
4. GGATATGAAAATATCC ((((((....))))))
5. GTCACCTCGAAAGAGGAC (((..(((....))))))
6. GTAAGCGGAAACGCTTAC (((((((....)))))))

1. 48.5
2. 48.7
3. 41.9
4. 50.9
5. 26.9
6. 65.2

Look at each sequence and report its Tm.
1. GTATAACGAAAGTTGTAC (((.(((....))).)))
2. GGTAATGAAAATTACC ((((((....))))))

[45.5, 48.4]

For the 6 sequences below, give their Tm values.
1. GATAACGGAAACGTTGTC ((.((((....)))).))
2. GCAAGCGGAAACACTTGC (((((.(....).)))))
3. GCCATGACGAAAGTCGGC (((..(((....))))))
4. GCATCCGGAAACGGACAC (..((((....))))..)
5. GTGATCGGAAACGGTCAC ((((.((....)).))))
6. GGTTGGCGAAAGCCGACC (((.(((....))).)))

1: 45.8; 2: 48.3; 3: 51; 4: 21.6; 5: 55; 6: 69.3

Origin of the recorded values: the array DNA melting data of Ke et al. (doi:10.1101/2024.01.08.574731)
